The origin of these recorded values is PubChem BioAssay (NCI).

Entries and their growth values follow.
System: NCI-H460 lung
Experiment: NCI-60 one-dose screen, 48 h (100 = growth as untreated, 0 = no growth, -100 = all killed)
Settings: 10 µM unless noted
About 83,000 compounds went through this panel and 20% of them were active in at least one assay; those are over-represented in the sample as a whole.
# value in %; strip the unit string

In the examples that follow, each entry is paired with its recorded growth.
**Q:** Given the compound CCCCCCCCCCCCCCCCCCOc1ccccc1CCCOP(=O)(O)OCC[N+](C)(C)C , what is its reported growth?
**A:** 14.1

**Q:** Can you handle COc1ccc(/C=C(\C#N)n2nnc3c(F)cccc32)cc1 next?
**A:** 2.99

Attention now shifts to the item below.
**Q:** Bench note: what growth did Cc1ccc(C(=O)N/N=C/c2cccc(Oc3ccccc3)c2)cn1 show?
**A:** 33.3
